Please go through the items and note down their logP.
- Experimental protocol: method code SF-HPLC, from DOI: 10.1021/je9900629

Here's what some known entries look like.
- Compound: "OC1C2CC3C1C3C2O (stereo unspecified)"
  logP: -0.42
- Compound: "OC1C2CCC(C2)C1O (stereo unspecified)"
  logP: 0.4
- Compound: "C1CC2CCC1C2"
  logP: 3.78
- Compound: "OC(C1CC1)C1CC1"
  logP: 1.07
- Compound: "OC1CC2CCC1C2O (stereo unspecified)"
  logP: 0.4
- Compound: "OC1CC2CCC1C2 (stereo unspecified)"
  logP: 1.45

Give logP for all compounds that follow.
1. OCC1CC2CCC1C2 (stereo unspecified)
2. C1C2C3C2C2C1C32 (stereo unspecified)
3. ClC1CC2CCC1C2 (stereo unspecified)
4. C1CC2CC1C1OC21 (stereo unspecified)
5. O=C1C2CC3C(C2)C13

(A)
[1.99, 2.9, 3.35, 1.58, 0.81]

----------
- Experimental protocol: method code SF-AS, from DOI: 10.1021/je9900629
Measurement name: logP
Give bare numbers.

Solved cases (2 shown):
- Compound: "C1=CC2C=CC1C2"
  Measurement name: "logP"
  Observed value: 2.67
- Compound: "OC1CC2C=CC1C2 (stereo not drawn)"
  Measurement name: "logP"
  Observed value: 1.24

Next:
(Q) Quick check: logP of C1=CC2CCC1C2 ?
(A) 3.24
